// provenance: ChEMBL document CHEMBL4665704

System: Dengue virus
assay.text: Inhibition of DENV RNA-dependent RNA polymerase at 50 ug/ml
measurement.context: dose 50.0 µg/ml
measured.quantity: inhibition (%)

INSERT INTO assay_data (compound, endpoint_value) VALUES
  ('C/C=C(\C)[C@@H]1C(C)=C[C@@H]2C[C@@H](O)C[C@H](C)[C@H]2[C@@H]1/C=C/C=C/C(=O)O', 78.1),
  ('CC1=C[C@@H]2CC(=O)C[C@H](C)[C@H]2[C@H](/C=C/C=C/C(=O)O)[C@@H]1/C(C)=C/CO', 36.7),
  ('CC1=C[C@@H]2C[C@H](O)C[C@H](C)[C@H]2[C@H](/C=C/C=C/C(=O)O)[C@@H]1/C(C)=C/CO', 43.9);

(1) C/C=C(\C)[C@@H]1C(C)=C[C@@H]2C[C@@H](OC(C)=O)C[C@H](C)[C@H]2[C@@H]1/C=C/C=C/C(=O)O
(2) CC1=C[C@@H]2CC[C@@H](O)[C@H](C)[C@H]2[C@H](/C=C/C=C/C(=O)O)[C@@H]1/C(C)=C/CO
Q. Of the two listed items, which has the higher inhibition? First: 1 Second: 2 Give the chosen item's label as your response.
A. 1

----------
Test system: Dengue virus
assay.text: Inhibition of DENV RNA-dependent RNA polymerase at 50 ug/ml
measurement.context: dose 50.0 µg/ml
measured.quantity: inhibition (%)

INSERT INTO results (compound, measurement_unit, endpoint_value) VALUES
  ('CC(=O)OC/C=C(\C)[C@@H]1C(C)=C[C@@H]2C[C@H](O)C[C@H](C)[C@H]2[C@@H]1/C=C/C=C/C(=O)O', '%', 52.3);

(A) CC(=O)OC/C=C(\C)[C@@H]1C(C)=C[C@@H]2CC[C@@H](O)[C@H](C)[C@H]2[C@@H]1/C=C/C=C/C(=O)O
(B) C/C=C(\C)[C@@H]1C(C)=C[C@@H]2C[C@H](O)C[C@H](C)[C@H]2[C@@H]1/C=C/C=C/C(=O)O
Q. Of the two listed items, which has the higher inhibition? First: A Second: B Give the chosen item's label as your response.
A. B
(B: 85%, A: 48.7%)

----------
Tested on: Zika virus
assay.text: Inhibition of NS5 in Zika virus at 10 ug/ml after 10 mins in presence of nucleotide mix by fluorescence assay
measurement.context: dose 10.0 µg/ml
measured.quantity: inhibition (%)

Solved cases (4 shown):
INSERT INTO results (compound, target_entity, measured_quantity, endpoint_value) VALUES
  ('CC(=O)OC/C=C(\C)[C@@H]1C(C)=C[C@@H]2CC[C@H](O)[C@H](C)[C@H]2[C@@H]1/C=C/C=C/C(=O)O', 'Zika virus', 'inhibition', 20.7),
  ('C/C=C(\C)[C@@H]1C(C)=C[C@@H]2CC(=O)C[C@H](C)[C@H]2[C@@H]1/C=C/C=C/C(=O)O', 'Zika virus', 'inhibition', 24.4),
  ('C/C=C(\C)[C@@H]1C(C)=C[C@@H]2C[C@@H](O)C[C@H](C)[C@H]2[C@@H]1/C=C/C=C/C(=O)O', 'Zika virus', 'inhibition', 23.3),
  ('CC1=C[C@@H]2C[C@@H](O)C[C@H](C)[C@H]2[C@H](/C=C/C=C/C(=O)O)[C@@H]1/C(C)=C/CO', 'Zika virus', 'inhibition', 6);

(I) CC1=C[C@@H]2CC(=O)C[C@H](C)[C@H]2[C@H](/C=C/C=C/C(=O)O)[C@@H]1/C(C)=C/CO
(II) C/C=C(\C)[C@@H]1C(C)=C[C@@H]2C[C@H](O)C[C@H](C)[C@H]2[C@@H]1/C=C/C=C/C(=O)O
Q. Of the two listed items, which has the higher inhibition? First: I Second: II Give the chosen item's label as your response.
A. II
